Assign abundance fitness to each entry below.
B1: Tyrosine-protein kinase BTK, residues 215 to 273; numbered along this chain, Q06187 (parent)
chain: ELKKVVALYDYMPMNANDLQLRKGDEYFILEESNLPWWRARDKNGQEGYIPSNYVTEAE

# Variants of: B1
# assay-overview: abundance fitness (aPCA) (normalised: wild type 0, dead -1); higher = more abundant; growth selection in yeast, the domain comes from the species named
# condition-summary: Homo sapiens

Past entries and their recorded results:
mutant	abundance fitness
E32K	-0.133
P51I	-0.581
E31V	-0.119
D42M	-0.498
L19I	-0.124

Go through the items and report each one's abundance fitness.
1. E31M
2. G45V
3. Y27W

Reply:
0.026
-0.641
-0.96

Go through the items and report each one's abundance fitness.
1. N44T
2. L30D
3. S33W
4. E31H
5. L35C
6. S33C
7. T56C

Reply:
1: 0.029; 2: -0.397; 3: -0.072; 4: -0.054; 5: -0.082; 6: -0.039; 7: -0.032
